Target: T1, BS69CC-MYND (BS69 amino acid 480–602, CC-MYND domain) (Homo sapiens, UniProt Q15326)
T1 construct: The BS69 CC-MYND domain (amino acids 480–602) was amplified from pCI-BS69; GST (N, cleaved yes); 6xHis (N, cleaved yes); made in house; host or cells: E. coli Rosetta 2 (DE3) pLysS
T1 sequence (Q15326 480-602): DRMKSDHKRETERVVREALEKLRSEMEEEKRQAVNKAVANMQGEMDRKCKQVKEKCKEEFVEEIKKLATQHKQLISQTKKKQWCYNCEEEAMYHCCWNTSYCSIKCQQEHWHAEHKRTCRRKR
Experiment: Isothermal titration calorimetry (ITC) of EBNA2 peptides and polypeptides binding to BS69CC-MYND
Settings: 25°C, pH 7.5, 29 injections of 1.3 μl 0.3 mM EBNA2 polypeptide into 0.1 mM BS69CC-MYND, mean ± SD of 3 independent experiments, read-out: KD2 (binding event 2), two-site (two event) binding model
Excerpt: We hypothesised that the impaired gene activation and growth maintenance properties of type 2 EBNA2 may be the result of increased binding to BS69 as a result of the aspartate to serine amino acid difference adjacent to BS69 binding motif 2. […] We used isothermal titration calorimetry (ITC) to determine the affinity of peptide binding to the C-terminal region of BS69 (amino acid 480–602) comprising the CC-MYND domain that we expressed and purified from E.coli (Fig 1B and 1C). […]
The molecules listed here are annotated with their Kd.
Kindly answer with a numeric value in nM, unit omitted.

Solved cases below.
Molecule: EBNA2_348-422 SD + m3 T1: type 2 EBNA2 polypeptide 348–422 containing both the SD and motif 3 (PSIDP) mutations (protein, left off: His6, N-terminal, cleaved, type 2 EBNA2 polypeptide 348–422 containing both the SD and motif 3 (PSIDP) mutations) SMPQLSPVVSLHQGQGPENSPTPGPSTAGPVCRVTPSATPDISPIHEPESSDSEEPPFLFPDDWYPPSIDPAELD
Kd [nM]: 136

Molecule: T2 EBNA2_348-422: type 2 EBNA2 polypeptide containing motif 1, 2 and 3, amino acids 348–422 (protein, left off: His6, N-terminal, cleaved) SMPQLSPVVSLHQGQGPENSPTPGPSTAGPVCRVTPSATPDISPIHEPESSDSEEPPFLFPSDWYPPTLEPAELD
Kd [nM]: 91

Molecule: T2 EBNA2_348-422 SD: type 2 EBNA2 polypeptide 348–422 with an S409D mutation (protein, left off: His6, N-terminal, cleaved, type 2 EBNA2 polypeptide 348–422 with an S409D mutation) SMPQLSPVVSLHQGQGPENSPTPGPSTAGPVCRVTPSATPDISPIHEPESSDSEEPPFLFPDDWYPPTLEPAELD
Kd [nM]: 200

Moving on to the next molecule.
Problem: Look up Kd of EBNA2_348-422 SD + m3 mt: type 2 EBNA2 polypeptide 348–422 containing both the SD and motif 3 (ATAEA) mutations (protein, left off: His6, N-terminal, cleaved, type 2 EBNA2 polypeptide 348–422 containing both the SD and motif 3 (ATAEA) mutations) SMPQLSPVVSLHQGQGPENSPTPGPSTAGPVCRVTPSATPDISPIHEPESSDSEEPPFLFPDDWYPATAEAAELD and report it.
Solution: 94
